Here's a batch of compounds along with measured pKi for Tyrosinase (Agaricus bisporus, UniProt O42713).
In plain terms, pKi is the concentration in mol/L turned into minus its base-10 logarithm.

Reference set, count: 2
Fill in pKi for CC(C)c1cccc(=O)c(O)c1 tested with Tyrosinase (Agaricus bisporus, UniProt O42713).
Sequence (O42713 whole entry): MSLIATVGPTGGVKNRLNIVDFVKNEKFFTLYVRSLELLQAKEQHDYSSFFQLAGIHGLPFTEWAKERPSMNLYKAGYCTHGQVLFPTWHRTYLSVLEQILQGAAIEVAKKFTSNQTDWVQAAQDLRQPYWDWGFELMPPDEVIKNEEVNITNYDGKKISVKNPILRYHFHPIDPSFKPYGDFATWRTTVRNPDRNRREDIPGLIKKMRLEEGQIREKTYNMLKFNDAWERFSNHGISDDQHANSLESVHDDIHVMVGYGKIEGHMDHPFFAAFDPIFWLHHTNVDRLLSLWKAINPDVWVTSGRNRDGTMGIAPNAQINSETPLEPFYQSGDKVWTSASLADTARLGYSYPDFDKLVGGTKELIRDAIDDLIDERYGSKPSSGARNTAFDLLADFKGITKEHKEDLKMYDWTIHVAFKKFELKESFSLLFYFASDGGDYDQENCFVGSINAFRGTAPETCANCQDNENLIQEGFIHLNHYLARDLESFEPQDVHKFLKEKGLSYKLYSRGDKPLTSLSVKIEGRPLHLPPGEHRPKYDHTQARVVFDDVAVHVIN
7.22

Fill in pKi for CC(C)c1ccccc(=O)c1O tested with Tyrosinase (Agaricus bisporus, UniProt O42713).
5.48

Next item in the queue.
Fill in pKi for CC(C)c1ccc(O)c(=O)cc1 tested with Tyrosinase (Agaricus bisporus, UniProt O42713).
7.70

* * *

Here's a batch of compounds along with measured IC50 for UniProt:O42713.
Lab book: enter the figure in nM, no units written.

Reference set, count: 2
Fill in IC50 for CC(C)c1ccccc(=O)c1O [ALPHA-THUJAPLICIN] tested with UniProt:O42713.
9530

Fill in IC50 for CC(C)c1cccc(=O)c(O)c1 [HINOKITIOL] tested with UniProt:O42713.
90

Next item in the queue.
Fill in IC50 for CC(C)c1ccc(O)c(=O)cc1 [GAMMA-THUJAPLICIN] tested with UniProt:O42713.
70

// provenance: ChEMBL document CHEMBL1275369
